Sequence of the target: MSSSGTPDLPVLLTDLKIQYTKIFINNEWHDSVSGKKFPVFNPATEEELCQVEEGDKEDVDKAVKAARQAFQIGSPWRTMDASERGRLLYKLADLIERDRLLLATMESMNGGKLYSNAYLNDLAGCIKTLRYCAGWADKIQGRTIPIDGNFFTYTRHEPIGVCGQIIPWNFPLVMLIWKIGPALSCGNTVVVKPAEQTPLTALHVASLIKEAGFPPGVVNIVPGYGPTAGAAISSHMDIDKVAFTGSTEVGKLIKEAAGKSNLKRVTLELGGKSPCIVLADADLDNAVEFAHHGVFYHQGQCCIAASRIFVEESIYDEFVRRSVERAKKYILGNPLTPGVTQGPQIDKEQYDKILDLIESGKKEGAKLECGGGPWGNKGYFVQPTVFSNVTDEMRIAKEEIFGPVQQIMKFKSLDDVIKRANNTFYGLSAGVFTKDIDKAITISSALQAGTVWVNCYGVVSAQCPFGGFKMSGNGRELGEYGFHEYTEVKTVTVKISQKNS
READOUT KIND: IC50 (µM)
Unit µM implied. Number only.

-- ask Hello, please tell me recorded IC50 for this one: CSC(=O)C#CC(C)(C)N(C)C [DIMATE]
-- reply 25
